- assay name: Puerarin bidirectional transport across Calu-3 cell monolayers
- Type: in vitro ADME, human
- condition summary: human, Papp (A→B), puerarin 60 μg/mL + paeoniflorin 24 μg/mL
result type: Papp A→B at 180 min, 60 μg/mL

molecule_smiles=O=c1c(-c2ccc(O)cc2)coc2c([C@@H]3O[C@H](CO)[C@@H](O)[C@H](O)[C@H]3O)c(O)ccc12 result="1.23 ×10⁻⁶ cm/s"

###

- assay name: Puerarin bidirectional transport across Calu-3 cell monolayers
- Type: in vitro ADME, human
- condition summary: human, Papp (B→A), puerarin 60 μg/mL + menthol 30 μg/mL
result type: Papp B→A at 180 min, 60 μg/mL (×10⁻⁶ cm/s)

molecule_smiles=O=c1c(-c2ccc(O)cc2)coc2c([C@@H]3O[C@H](CO)[C@@H](O)[C@H](O)[C@H]3O)c(O)ccc12 numeric_value=1.8

###

- assay name: Puerarin bidirectional transport across Calu-3 cell monolayers
- Assay type: in vitro ADME, human
- condition summary: human, Papp (A→B), puerarin 60 μg/mL + menthol 15 μg/mL
result type: Papp A→B at 180 min, 60 μg/mL (×10⁻⁶ cm/s)

molecule_smiles=O=c1c(-c2ccc(O)cc2)coc2c([C@@H]3O[C@H](CO)[C@@H](O)[C@H](O)[C@H]3O)c(O)ccc12 result_type="Papp A→B at 180 min, 60 μg/mL" numeric_value=1.28

###

- assay name: Puerarin bidirectional transport across Calu-3 cell monolayers
- Format: in vitro ADME, human
- condition summary: human, Papp (A→B), puerarin 60 μg/mL + paeoniflorin 48 μg/mL
result type: Papp A→B at 180 min, 60 μg/mL (×10⁻⁶ cm/s)

molecule="O=c1c(-c2ccc(O)cc2)coc2c([C@@H]3O[C@H](CO)[C@@H](O)[C@H](O)[C@H]3O)c(O)ccc12 [puerarin]" result_type="Papp A→B at 180 min, 60 μg/mL" unit_spec="×10⁻⁶ cm/s" numeric_value=1.23

###

- assay name: Puerarin bidirectional transport across Calu-3 cell monolayers
- Type: in vitro ADME, human
- condition summary: human, Papp (A→B), puerarin 60 μg/mL + menthol 30 μg/mL
result type: Papp A→B at 180 min, 60 μg/mL

molecule_smiles=O=c1c(-c2ccc(O)cc2)coc2c([C@@H]3O[C@H](CO)[C@@H](O)[C@H](O)[C@H]3O)c(O)ccc12 result="1.64 ×10⁻⁶ cm/s"

###

- assay name: Puerarin bidirectional transport across Calu-3 cell monolayers
- Type: in vitro ADME, human
- condition summary: human, Papp (B→A), puerarin 60 μg/mL + paeoniflorin 12 μg/mL + menthol 15 μg/mL
result type: Papp B→A at 180 min, 60 μg/mL (×10⁻⁶ cm/s)

compound="O=c1c(-c2ccc(O)cc2)coc2c([C@@H]3O[C@H](CO)[C@@H](O)[C@H](O)[C@H]3O)c(O)ccc12 [puerarin]" result_type="Papp B→A at 180 min, 60 μg/mL" unit_spec="×10⁻⁶ cm/s" numeric_value=1.29

###

- assay name: Puerarin bidirectional transport across Calu-3 cell monolayers
- Assay type: in vitro ADME, human
- condition summary: human, Papp (A→B), puerarin 60 μg/mL + paeoniflorin 48 μg/mL + menthol 60 μg/mL
result type: Papp A→B at 180 min, 60 μg/mL

compound="O=c1c(-c2ccc(O)cc2)coc2c([C@@H]3O[C@H](CO)[C@@H](O)[C@H](O)[C@H]3O)c(O)ccc12 [puerarin]" result_type="Papp A→B at 180 min, 60 μg/mL" result="1.96 ×10⁻⁶ cm/s"
